meta.source: patent US20240247080A1

# measurement target: T1, GIP receptor (human (printed as hGIPR), UniProt P48546 22-466)
# T1 sequence (looked up): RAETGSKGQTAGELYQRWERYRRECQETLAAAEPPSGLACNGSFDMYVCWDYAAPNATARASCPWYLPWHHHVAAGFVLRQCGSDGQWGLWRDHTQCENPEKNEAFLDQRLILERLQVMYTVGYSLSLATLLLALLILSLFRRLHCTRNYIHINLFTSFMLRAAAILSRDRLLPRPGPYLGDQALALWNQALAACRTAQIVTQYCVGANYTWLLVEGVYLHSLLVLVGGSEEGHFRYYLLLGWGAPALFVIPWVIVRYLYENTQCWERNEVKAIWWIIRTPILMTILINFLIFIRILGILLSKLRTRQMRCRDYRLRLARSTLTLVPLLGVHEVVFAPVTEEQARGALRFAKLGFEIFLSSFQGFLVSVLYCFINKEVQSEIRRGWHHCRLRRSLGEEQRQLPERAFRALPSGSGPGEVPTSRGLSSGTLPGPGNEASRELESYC
# method description: cell-based or functional assay
Starred links: 1 amine or outer side, 2 acyl side, 3 side chain; linkers in the order of their positions; H or OH if unused. Non-standard residues stand in square brackets, D forms with d. Groups on a side chain read outwards from the residue. No end group written: not given here. *: point of attachment. C20 diacid = O=C(O)CCCCCCCCCCCCCCCCCCC(=O)*; C18 diacid = O=C(O)CCCCCCCCCCCCCCCCC(=O)*; γGlu = O=C(O)[C@H](CCC(=O)[*:2])N[*:1]; εLys = N[C@@H](CCCCN[*:1])C(=O)[*:2]; AEEA = NCCOCCOCC(=O)O; Aib = CC(C)(N)C(=O)O

| binder | EC50 hGIPR 100% hP (CreLuc), nM |
| --- | --- |
| Y[Aib]EGTFTSDYSI[Aib]LEKQAQ[Aib]AFVEWLIK([AEEA-AEEA-γGlu-γGlu-γGlu-γGlu-C20 diacid])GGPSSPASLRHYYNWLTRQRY-NH2 (also: TFA salt) [Compound 175] | 1.53 |
| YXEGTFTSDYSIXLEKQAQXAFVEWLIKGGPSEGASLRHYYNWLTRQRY (Aib at 2, 13, 20; NMeQ (N-methyl-L-glutamine) at 47; K28 side chain carries C20DA-gGlu-gGlu-gGlu-gGlu-gGlu-gGlu-eLys; C-terminal amide) [Compound 222] | 1.85 |
| Y[Aib]EGTFTSDYSI[Aib]LEKQAQ[Aib]AFVEWLIK([AEEA-AEEA-γGlu-γGlu-γGlu-C18 diacid])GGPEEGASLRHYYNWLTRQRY-NH2 (also: TFA salt) [Compound 248] | 0.79 |
| Y[Aib]EGTFTSDYSI[Aib]LEKQAQ[Aib]AFIEWLIKGGPSEGASLRHYYNWLTRQRY-NH2 (not fully specified (residue 28); also: TFA salt) [Compound 258] | 1.23 |
| Y[Aib]EGTFTSDYSI[Aib]LEKQAQ[Aib]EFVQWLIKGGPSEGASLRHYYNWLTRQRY-NH2 (not fully specified (residue 28); also: TFA salt) [Compound 207] | 1.66 |
| YXEGTFTSDYSIXLEKQAQRAFVEWLIKGGPSSGASLRHYYNWLTRQRY (Aib at 2, 13; D-Arg at 20; K28 side chain carries C20DA-gGlu-gGlu-gGlu-gGlu-gGlu-gGlu-eLys; C-terminal amide) [Compound 216] | 64.2 |
| Y[Aib]EGTFTSDYSI[Aib]LEKQAQ[Aib]EFVQWLIK([γGlu-γGlu-γGlu-γGlu-C18 diacid])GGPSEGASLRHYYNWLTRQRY-NH2 (also: TFA salt) [Compound 202] | 1.81 |
| Y[Aib]EGTFTSDYSI[Aib]LEKQAQ[Aib]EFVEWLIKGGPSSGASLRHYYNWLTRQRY-NH2 (not fully specified (residue 28); also: TFA salt) [Compound 201] | 1.03 |
| Y[Aib]EGTFTSDYSI[Aib]LEKQAQ[Aib]AFVQWLIK([AEEA-AEEA-Glu-Glu-Glu-Glu-C18 diacid])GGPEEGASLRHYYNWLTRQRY-NH2 (also: TFA salt) [Compound 177] | 2.83 |
| YXEGTFTSDYSIXLEKQAQXAFVEWLIKGGPSEPASLRHYYNWLTRQRY (Aib at 2, 13, 20; K28 side chain carries C20DA-gGlu-gGlu-gGlu-gGlu-gGlu-gGlu-eLys; C-terminal amide) [Compound 233] | 0.75 |
| Y[Aib]EGTFTSDYSI[Aib]LEKQAQ[Aib]AFVEWLIKGGPSSGASLRHYYNW[dD]TRQRY-NH2 (not fully specified (residue 28); also: TFA salt) [Compound 204] | 2.88 |
| Y[Aib]EGTFTSDYSI[Aib]LEKQAQ[Aib]AFVQWLIK([εLys-γGlu-γGlu-γGlu-γGlu-γGlu-C20 diacid])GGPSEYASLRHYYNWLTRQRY-NH2 (also: TFA salt) [Compound 189] | 5.06 |
